# Tested on: rape
# Procedure details: Test B pre/postemergence rape
# Assay type: in vivo, Brassica napus
# Condition context: Postemergence, Rate 250 g/ha; scale of 0 to 10, 0 is no effect, 10 is complete control
Record form. Attribute: Rape plant response rating. Fill in for each entry.
No unit in the answer, only the number.

Just so you know, measured Rape plant response rating for COCCn1c(=O)on(C(=O)N(c2ccccc2)C(C)C)c1=O came out at 2

Just so you know, measured Rape plant response rating for CCCCn1c(=O)on(C(=O)N(c2ccc(F)cc2F)C(C)C)c1=O came out at 7

Just so you know, measured Rape plant response rating for COC(=O)C(C)n1c(=O)on(C(=O)N(c2ccc(F)cc2)C(C)C)c1=O (centres unmarked) came out at 0

Just so you know, measured Rape plant response rating for CCC(C)n1c(=O)on(C(=O)N(c2ccccc2)C(C)C)c1=O (centres unmarked) came out at 0

Just so you know, measured Rape plant response rating for CCOP(=O)(OCC)C(C)n1c(=O)on(C(=O)N(c2ccc(F)cc2)C(C)C)c1=O (centres unmarked) came out at 0

###

# System: bamyardgrass
# Procedure details: Test B flood test barnyardgrass
# Assay type: in vivo, Echinochloa crus-galli
# Condition context: Rate 250 g/ha; Pre-emergence; flood-test species; scale 0 to 10, 0 is no effect, 10 is complete control
Record form. Attribute: Barnyardgrass plant response rating. Fill in for each entry.
No unit in the answer, only the number.

Short answer on bamyardgrass for CC(C)N(C(=O)n1oc(=O)n(C2CCCC2)c1=O)c1ccccc1 [Compound 283] , Barnyardgrass plant response rating: 6

Short answer on bamyardgrass for CCN(C(=O)n1oc(=O)n(Cc2ccco2)c1=O)C1CCCCC1 [Compound 312] , Barnyardgrass plant response rating: 0

Short answer on bamyardgrass for Cc1ccccc1-n1c(=O)on(C(=O)N(c2ccc3c(c2)CCC3)C(C)C)c1=O [Compound 278] , Barnyardgrass plant response rating: 0

Short answer on bamyardgrass for Cc1ccccc1-n1c(=O)on(C(=O)N(c2ccc(F)cc2)C2CCC2)c1=O [Compound 200] , Barnyardgrass plant response rating: 0

Short answer on bamyardgrass for CON=C(Cn1c(=O)on(C(=O)N(c2ccc(F)cc2)C(C)C)c1=O)C(F)(F)F [Compound 227] , Barnyardgrass plant response rating: 0

Short answer on bamyardgrass for CCOCn1c(=O)on(C(=O)N(c2ccc(F)cc2)C(C)C)c1=O [Compound 295] , Barnyardgrass plant response rating: 0

Short answer on bamyardgrass for C=CCn1c(=O)on(C(=O)N(c2ccc(F)cc2)C2CC2)c1=O [Compound 154] , Barnyardgrass plant response rating: 0

Short answer on bamyardgrass for Cc1cccc(C)c1-n1c(=O)on(C(=O)N(C(C)C)C2C=CCCC2)c1=O (stereo not shown) [Compound 273] , Barnyardgrass plant response rating: 4

Short answer on bamyardgrass for CCc1ccc(N(C(=O)n2oc(=O)n(-c3ccccc3C)c2=O)C(C)C)cc1 [Compound 230] , Barnyardgrass plant response rating: 0

Short answer on bamyardgrass for CC(C)N(C(=O)n1oc(=O)n(C2CC2)c1=O)c1ccc(F)cc1 [Compound 242] , Barnyardgrass plant response rating: 0

###

# Tested on: cocklebur
# Procedure details: Test B pre/postemergence cocklebur
# Format: in vivo, Xanthium strumarium
# Condition context: Postemergence, Rate 62 g/ha; scale of 0 to 10, 0 is no effect, 10 is complete control
Record form. Attribute: Cocklebur plant response rating. Fill in for each entry.
No unit in the answer, only the number.

Just so you know, measured Cocklebur plant response rating for CC(=O)C(C)n1c(=O)on(C(=O)N(c2ccc(F)cc2F)C(C)C)c1=O (stereo not shown) came out at 0

Just so you know, measured Cocklebur plant response rating for CC(C)N(C(=O)n1oc(=O)n(CCC(F)(F)F)c1=O)c1ccccc1 came out at 0

Just so you know, measured Cocklebur plant response rating for CC(Cl)=CCn1c(=O)on(C(=O)N(c2ccc(F)cc2F)C(C)C)c1=O came out at 0

Just so you know, measured Cocklebur plant response rating for CC(C)N(C(=O)n1oc(=O)n(CCC(F)=C(F)F)c1=O)c1ccccc1 came out at 2

###

# Test system: crabgrass
# Procedure details: Test B pre/postemergence crabgrass
# Type: in vivo, Digitaria sanguinalis
# Condition context: Preemergence, Rate 62 g/ha; scale 0 to 10 (0 no effect, 10 complete control)
Reported endpoint: Crabgrass plant response rating
No unit in the answer, only the number.

Just so you know, measured Crabgrass plant response rating for CCC(C)n1c(=O)on(C(=O)N(c2ccccc2)C(C)C)c1=O (centres unmarked) came out at 10

Just so you know, measured Crabgrass plant response rating for CC(C)N(C(=O)n1oc(=O)n(-c2cnn(C)c2)c1=O)c1ccccc1 came out at 4

Just so you know, measured Crabgrass plant response rating for CC(C)N(C(=O)n1oc(=O)n(CCC2OCCO2)c1=O)c1ccccc1 came out at 9

Just so you know, measured Crabgrass plant response rating for CCC=CCn1c(=O)on(C(=O)N(c2ccc(Cl)cc2)C(C)C)c1=O came out at 9

Just so you know, measured Crabgrass plant response rating for CC(C)N(C(=O)n1oc(=O)n(C2CCCCC2)c1=O)c1ccccc1 came out at 5

###

Record form. Attribute: Morningglory plant response rating. Fill in for each entry.
# Test system: morningglory
# Procedure details: Test B pre/postemergence morningglory
# Assay type: in vivo, Ipomoea hederacea
# Condition context: Rate 125 g/ha, Postemergence; scale 0 to 10
No unit in the answer, only the number.

Just so you know, measured Morningglory plant response rating for CCOC(=O)C=CCn1c(=O)on(C(=O)N(c2ccc(F)cc2)C(C)C)c1=O [Compound 214] came out at 3

Just so you know, measured Morningglory plant response rating for CC(C)N(C(=O)n1oc(=O)n(CC(=O)C(C)(C)C)c1=O)c1ccc(F)cc1 [Compound 216] came out at 4

Just so you know, measured Morningglory plant response rating for CC(C)N(C(=O)n1oc(=O)n(-c2cccnc2)c1=O)c1ccccc1 [Compound 235] came out at 2

Just so you know, measured Morningglory plant response rating for CC(C)N(C(=O)n1oc(=O)n(Cc2ccco2)c1=O)c1ccc(Cl)cc1 [Compound 206] came out at 1

Just so you know, measured Morningglory plant response rating for COC(=O)Cn1c(=O)on(C(=O)N(c2ccc(F)cc2)C(C)C)c1=O [Compound 215] came out at 2

Just so you know, measured Morningglory plant response rating for CC(=O)OCCCCn1c(=O)on(C(=O)N(c2ccc(F)cc2)C(C)C)c1=O [Compound 211] came out at 6

###

Record form. Attribute: Plant response rating (0 to 10; 0 is no effect, 10 is complete control), Sugarbeets. Fill in for each entry.
# Tested on: sugar beet
# Procedure details: Test B pre/postemergence sugar beet
# Type: in vivo, Beta vulgaris
# Condition context: Rate 250 g/ha; Postemergence

Just so you know, measured Plant response rating (0 to 10; 0 is no effect, 10 is complete control), Sugarbeets for CC(C)N(C(=O)n1oc(=O)n(CC(=O)C(C)(C)C)c1=O)c1ccc(F)cc1 came out at 0

Just so you know, measured Plant response rating (0 to 10; 0 is no effect, 10 is complete control), Sugarbeets for CON=C(Cn1c(=O)on(C(=O)N(c2ccc(F)cc2)C(C)C)c1=O)C(F)(F)F came out at 3

Just so you know, measured Plant response rating (0 to 10; 0 is no effect, 10 is complete control), Sugarbeets for CCCCc1ccc(N(C(=O)n2oc(=O)n(-c3ccccc3C)c2=O)C(C)C)cc1 came out at 0

Just so you know, measured Plant response rating (0 to 10; 0 is no effect, 10 is complete control), Sugarbeets for Cc1ccccc1N(C(=O)n1oc(=O)n(-c2ccccc2C)c1=O)C(C)C came out at 0

###

# Tested on: blackgrass
# Procedure details: Test B pre/postemergence blackgrass
# Assay type: in vivo, Alopecurus myosuroides
# Condition context: Preemergence, Rate 62 g/ha; scale 0 to 10 (0 no effect, 10 complete control)
Reported endpoint: Blackgrass plant response rating
No unit in the answer, only the number.

Just so you know, measured Blackgrass plant response rating for COC(C)n1c(=O)on(C(=O)N(c2ccc(Cl)cc2)C(C)C)c1=O (stereo not shown) [Compound 592] came out at 0

Just so you know, measured Blackgrass plant response rating for CC(C)N(C(=O)n1oc(=O)n(-c2cnn(C)c2)c1=O)c1ccccc1 [Compound 123] came out at 0

Just so you know, measured Blackgrass plant response rating for Cc1nsc(C)c1-n1c(=O)on(C(=O)N(c2ccc(F)cc2)C(C)C)c1=O [Compound 157] came out at 0

Just so you know, measured Blackgrass plant response rating for CC(C)N(C(=O)n1oc(=O)n(CCCCF)c1=O)c1ccc(Cl)cc1 [Compound 551] came out at 3

Just so you know, measured Blackgrass plant response rating for CC(C)N(C(=O)n1oc(=O)n(CC(=O)N(C)C)c1=O)c1ccc(F)cc1 [Compound 586] came out at 3

Just so you know, measured Blackgrass plant response rating for C=C(Cn1c(=O)on(C(=O)N(c2ccccc2)C(C)C)c1=O)c1ccc(F)cc1 [Compound 606] came out at 0

Just so you know, measured Blackgrass plant response rating for CCN(Cc1ccccc1)C(=O)n1oc(=O)n(-c2c(C)cccc2C)c1=O [Compound 70] came out at 0

Just so you know, measured Blackgrass plant response rating for Cc1noc(C)c1Cn1c(=O)on(C(=O)N(c2ccccc2)C(C)C)c1=O [Compound 569] came out at 0

Just so you know, measured Blackgrass plant response rating for CC(C)N(C(=O)n1oc(=O)n(C)c1=O)c1ccc(F)cc1 [Compound 138] came out at 9

Just so you know, measured Blackgrass plant response rating for Cc1cccc(C(C)C)c1-n1c(=O)on(C(=O)N(c2ccc(Cl)cc2)C(C)C)c1=O [Compound 64] came out at 0
